The following molecules were reported with IC50 values on Glutathione S-transferase P (Homo sapiens) in different studies.
Sequence (P09211 whole entry): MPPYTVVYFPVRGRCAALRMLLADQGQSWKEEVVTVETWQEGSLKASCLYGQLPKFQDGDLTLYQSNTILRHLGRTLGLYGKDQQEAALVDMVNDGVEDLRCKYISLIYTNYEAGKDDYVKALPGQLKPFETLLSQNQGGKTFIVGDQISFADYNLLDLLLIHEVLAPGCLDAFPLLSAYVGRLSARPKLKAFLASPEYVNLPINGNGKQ

Fill in IC50 for CCCC(CC(C)=O)SCC(NC(=O)CCC(N)C(=O)O)C(=O)NCC(=O)O (centres undefined) tested with Glutathione S-transferase P (Homo sapiens).
8.1 µM

Fill in IC50 for CCCCCCO[C@H]1C=C(COC(C)=O)C(=O)[C@@H]2O[C@@](C)(OC)[C@](C)(OC)O[C@@H]12 tested with Glutathione S-transferase P (Homo sapiens).
52.4 µM

Fill in IC50 for CO[C@@H]1C=C(COC(C)=O)C(=O)[C@@H]2O[C@@](C)(OC)[C@](C)(OC)O[C@@H]12 tested with Glutathione S-transferase P (Homo sapiens).
> 100 µM

Fill in IC50 for O=C(CCC(=O)OCCCCCCSc1ccc([N+](=O)[O-])c2nonc12)Nc1ccc(F)c(Cl)c1 tested with Glutathione S-transferase P (Homo sapiens).
9.85 µM
